Listed here are molecules together with their documented inhibition.
Target: N-glycosylase/DNA lyase (Homo sapiens);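 also: OGG1 cleavage of a quenched duplex DNA oligonucleotide, coupled to APE1 for strand incision, read as fluorescence at 594 nm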
Details: Compound Concentration 1.0 uM, Hit No
Description: Inhibition of OGG1 by quantifying inhibition of OGG1-mediated cleavage and dissociation of quenched duplex DNA oligonucleotides, measured as fluorescence at 594 nm. To generate a functional strand incision and increase turn-over this assay is coupled to APE1.

{"entrySmiles": "CNC(=O)c1ccc(Nc2ncc(C(F)(F)F)c(NCc3nccnc3N(C)S(C)(=O)=O)n2)cc1", "unitsOfMeasure": "%", "inhibition": -7.84}
{"entrySmiles": "CN(C)C(=O)/C(C#N)=C/c1ccc(-c2nc3cnc4[nH]ccc4c3n2C2CCCCC2)o1", "unitsOfMeasure": "%", "inhibition": 10.1}
{"entrySmiles": "O=C(c1ccc(F)cc1)N1CC(COc2ccc(Br)cc2)(C(=O)O)C1", "unitsOfMeasure": "%", "inhibition": -9.75}
{"entrySmiles": "CC(=O)c1c(C)c2cnc(Nc3ccc(N4CCNCC4)cn3)nc2n(C2CCCC2)c1=O", "unitsOfMeasure": "%", "inhibition": 4.49}
{"entrySmiles": "CN(C)C(=O)Cn1cc(-c2nc([C@@](C)(c3ccc(-c4cnc(N)nc4)cc3)C3CC3)no2)cn1", "unitsOfMeasure": "%", "inhibition": -4.49}

###

Biological target: Single-strand selective monofunctional uracil DNA glycosylase (Homo sapiens) (UniProt Q53HV7);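 also: enzymatic SMUG1 assay coupled with APE1, reading fluorescence at 594 nm released when a quenched double-stranded DNA oligonucleotide substrate is cleaved and separated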
Sequence (whole entry): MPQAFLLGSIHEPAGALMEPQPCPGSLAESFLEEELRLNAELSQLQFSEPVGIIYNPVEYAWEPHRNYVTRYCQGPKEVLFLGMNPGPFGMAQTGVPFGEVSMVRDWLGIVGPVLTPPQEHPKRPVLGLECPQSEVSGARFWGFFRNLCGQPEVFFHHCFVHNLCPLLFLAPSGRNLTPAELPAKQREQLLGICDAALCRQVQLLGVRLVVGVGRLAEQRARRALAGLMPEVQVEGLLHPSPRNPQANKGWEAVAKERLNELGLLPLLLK
Details: Compound Concentration 10.0 uM, Hit No
Description: Inhibition of SMUG1 by quantifying inhibition of SMUG1-mediated cleavage and dissociation of quenched duplex DNA oligonucleotides, measured as fluorescence at 594 nm. To generate a functional strand incision and increase turn-over this assay is coupled to APE1.
Given measured inhibition, output 1 (yes) if it is greater than or equal to 10% and 0 (no) if not.

{"compound": "Cc1nc(C#Cc2ccnc(Cl)c2)c(C)n1-c1ccc(OC(F)(F)F)cc1", "labelValue": "0 (no)"}
{"compound": "CCCCCC(O)/C=C/[C@H]1C(=O)CC(O)C1C/C=C\\CCCC(=O)O (stereo not given in full)", "labelValue": "0 (no)"}
{"compound": "CC(C)(C)NC[C@H](O)COc1nsnc1N1CCOCC1", "labelValue": "0 (no)"}
{"compound": "CCCCN(CCCC)C(=O)CN1C[C@@H](c2cc(OC)c3c(c2)OCO3)[C@H](C(=O)O)[C@H]1CC(C)(C)CCC", "labelValue": "1 (yes)"}
{"compound": "O=C1NCN(c2ccccc2)C12CCN(CCCOc1ccc(F)cc1)CC2", "labelValue": "1 (yes)"}

###

Molecular target: UniProt Q96FI4
Sequence (Q96FI4 whole entry): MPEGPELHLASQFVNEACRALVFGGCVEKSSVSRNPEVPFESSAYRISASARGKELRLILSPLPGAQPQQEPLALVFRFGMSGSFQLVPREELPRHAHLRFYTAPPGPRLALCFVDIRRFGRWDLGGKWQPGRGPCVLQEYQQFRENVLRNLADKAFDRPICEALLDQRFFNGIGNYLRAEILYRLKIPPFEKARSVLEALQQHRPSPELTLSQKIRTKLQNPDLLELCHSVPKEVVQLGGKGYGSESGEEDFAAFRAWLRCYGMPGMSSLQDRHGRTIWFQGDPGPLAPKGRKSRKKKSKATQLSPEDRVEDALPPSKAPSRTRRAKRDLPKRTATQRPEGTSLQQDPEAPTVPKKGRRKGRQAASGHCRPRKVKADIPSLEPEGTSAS
Settings: Compound Concentration 10.0 uM, Hit No
Description: Inhibition of NEIL1 by quantifying inhibition of NEIL1-mediated cleavage and dissociation of quenched duplex DNA oligonucleotides, measured as fluorescence at 594 nm.
Listed here are compounds together with their documented inhibition.

{"compound": "CSc1ccc(C(=O)N[C@@H]2CCCC[C@@H]2NC(=O)CNC(=O)c2cc(C(F)(F)F)ccc2NC(=O)NC(C)C)cc1", "unitsOfMeasure": "%", "inhibition": 0.537}
{"compound": "COc1ccnc(N2CCC3(CCCN(Cc4c[nH]c5ccccc45)C3=O)CC2)n1", "unitsOfMeasure": "%", "inhibition": 9.14}
{"compound": "Cc1c(F)cccc1[C@H]1COC(N)=N1", "unitsOfMeasure": "%", "inhibition": 11.3}
{"compound": "COc1cccc(-c2c(C)n(Cc3c(F)cccc3C(F)(F)F)c(=O)n(C[C@H](NCCCC(=O)O)c3ccccc3)c2=O)c1F", "unitsOfMeasure": "%", "inhibition": -2.87}
{"compound": "COc1cc2c(CCNC(C)=O)c[nH]c2cc1Cl", "unitsOfMeasure": "%", "inhibition": -9.99}
{"compound": "C[C@@H](NCCCc1cccc(C(F)(F)F)c1)c1cccc2ccccc12", "unitsOfMeasure": "%", "inhibition": 1.28}
{"compound": "COC(=O)c1cc2c(cn1)[nH]c1ccccc12", "unitsOfMeasure": "%", "inhibition": 5.05}
{"compound": "O=C(O)CC/C=C\\C[C@@H]1CO[C@H](c2ccccc2Cl)O[C@@H]1c1ccccc1O", "unitsOfMeasure": "%", "inhibition": -2.87}
{"compound": "N[C@@H]1c2cccnc2[C@H](OC(=O)N2CCC(n3c(=O)[nH]c4ncccc43)CC2)CC[C@H]1c1cccc(F)c1F", "unitsOfMeasure": "%", "inhibition": -2.58}
{"compound": "Nc1nc(-c2ccco2)c2cnn(Cc3ccccc3F)c2n1", "unitsOfMeasure": "%", "inhibition": -2.72}
{"compound": "CC1(C)CCC[C@]2(C)[C@@H](C=O)C(C=O)=CC[C@@H]12", "unitsOfMeasure": "%", "inhibition": -1.47}
{"compound": "CC1(C)C(=O)C(C)(C)c2cc(C(=O)Nc3ccc(C(=O)O)cc3)ccc21", "unitsOfMeasure": "%", "inhibition": -2.26}
{"compound": "CCCCCCCN(CCc1ccc(SC(C)(C)C(=O)O)cc1)C(=O)Nc1ccc(F)cc1F", "unitsOfMeasure": "%", "inhibition": -8.92}
{"compound": "COCc1nc2cnc3cc(-c4c(C)noc4C)c(OC[C@H]4CCNC4)cc3c2n1[C@H](C)c1ccccc1", "unitsOfMeasure": "%", "inhibition": -6.95}
{"compound": "CCCCCCOc1cc2n(c(=O)n1)CCc1cc(OC)c(OC)cc1-2", "unitsOfMeasure": "%", "inhibition": 1.64}
{"compound": "COc1ccc(CN(CCN(C)C)c2ccccn2)cc1", "unitsOfMeasure": "%", "inhibition": 2.61}
{"compound": "CCCCCNC(=N)N/N=C/c1c[nH]c2ccc(OC)cc12", "unitsOfMeasure": "%", "inhibition": -9.54}
{"compound": "CC(C)(O)c1cnc(N2C[C@@]3(CCC[C@](C)(Cn4cnc5ccc(C#N)cc54)C3)OC2=O)cn1", "unitsOfMeasure": "%", "inhibition": 1.2}
{"compound": "O=C(O)c1cc(-c2ccc(C3CCNCC3)cc2)c2ccc(-c3ccc(C(F)(F)F)cc3)cc2c1", "unitsOfMeasure": "%", "inhibition": -1.45}
{"compound": "N#CN1CC[C@H](C(=O)Nc2nc3c(s2)CN(C(=O)CN=[N+]=[N-])CC3)C1", "unitsOfMeasure": "%", "inhibition": 3.04}
{"compound": "Cc1c(NC(=O)c2cc(C(N)=O)nc3cc(F)ccc23)c(C(F)(F)F)nn1Cc1ccc(C#N)cc1", "unitsOfMeasure": "%", "inhibition": -9.07}
{"compound": "Cc1nnc2n1-c1sc(CCC(=O)N3CCOCC3)cc1C(c1ccccc1Cl)=NC2", "unitsOfMeasure": "%", "inhibition": 5.28}
{"compound": "Cc1ccc2nc(CNCCCOc3ccccc3)cc(O)c2c1", "unitsOfMeasure": "%", "inhibition": 0.467}
{"compound": "COc1cc(O)c(C(CC(=O)N2C[C@H](C)C[C@H](C)C2)c2ccc3c(c2)OCO3)c(OC)c1 (stereo partly specified)", "unitsOfMeasure": "%", "inhibition": -4.23}
{"compound": "CCn1c(CNC(=O)c2nc(Cl)cnc2N)[n+](CC)c2ccc(C(=O)N(C)CCN(C)C)cc21", "unitsOfMeasure": "%", "inhibition": -5.14}
{"compound": "COc1cccc(CNC(=O)c2nc3scc(CN(C)Cc4ccccc4)c3c(=O)[nH]2)c1", "unitsOfMeasure": "%", "inhibition": -6.05}
{"compound": "N/C(=N\\C(=O)c1nc(Cl)c(N)nc1N)NCc1ccccc1", "unitsOfMeasure": "%", "inhibition": 9.94}
{"compound": "CCc1nc2c(C)cc(C)nc2[nH]1", "unitsOfMeasure": "%", "inhibition": 2.46}
{"compound": "NCCc1cn(S(=O)(=O)c2c(Cl)nc3sccn23)c2ccccc12", "unitsOfMeasure": "%", "inhibition": 6.53}
{"compound": "COc1cccc2c1c(NS(=O)(=O)c1ccc(Cl)s1)nn2Cc1cccc(CNC(=O)C(C)(C)O)c1", "unitsOfMeasure": "%", "inhibition": -1.47}
{"compound": "CC(=O)Nc1nc2c(Oc3cc(-c4ccc(C(F)(F)F)cc4)ncn3)cccc2s1", "unitsOfMeasure": "%", "inhibition": 4.31}
{"compound": "Cc1ccccc1N1CCN(CCc2nnc3n2CCCC3)CC1", "unitsOfMeasure": "%", "inhibition": 0.834}
{"compound": "Cc1ccc(OCC(O)C(C)NC(C)C)c2c1CCC2 (stereo unspecified)", "unitsOfMeasure": "%", "inhibition": 7.65}
{"compound": "Cc1nc(-c2ccc(-c3ccc(C(=O)N4CCc5cc6c(cc54)C4(CCN(C)CC4)CO6)cc3)c(C)c2)no1", "unitsOfMeasure": "%", "inhibition": -7.62}
{"compound": "Cc1ccc(F)cc1C(=O)Nc1ccc(C(=O)N2Cc3cccn3Cc3ccccc32)c(Cl)c1", "unitsOfMeasure": "%", "inhibition": -2.72}
{"compound": "COc1cc(/C=C/C(=O)NCCn2c(C)cc3ccccc32)cc(OC)c1OC", "unitsOfMeasure": "%", "inhibition": -9.62}
{"compound": "O=C(NNC(=O)c1ccc(CNS(=O)(=O)c2ccc(F)c(Cl)c2)cc1)c1ccccc1", "unitsOfMeasure": "%", "inhibition": 3.71}
{"compound": "CN(C)CCn1cc(S(=O)(=O)c2cccc(F)c2)c2cccnc21", "unitsOfMeasure": "%", "inhibition": -6.66}
{"compound": "CC(C)Oc1ccc(Cc2ccc(NC3=NCCN3)cc2)cc1", "unitsOfMeasure": "%", "inhibition": 0.454}
{"compound": "Cc1nc(C#Cc2ccnc(Cl)c2)c(C)n1-c1ccc(OC(F)(F)F)cc1", "unitsOfMeasure": "%", "inhibition": -9.4}
{"compound": "CCCN[C@H]1CCc2nc(N)sc2C1", "unitsOfMeasure": "%", "inhibition": -3.55}
